Origin of the recorded values: patent US8481494B2

- test.details: Solubility of the unprotected aminopyrazole trimers (stock solutions)
- experimental.setup: water (class a) or DMSO (class b)
Reported solubility values for a set of compounds

compound	solubility
CC(NC(=O)C(CCCCN)NC(=O)c1cc(NC(=O)c2cc(NC(=O)c3cc([N+](=O)[O-])n[nH]3)n[nH]2)n[nH]1)C1CCCCC1.O=C(O)C(F)(F)F (stereo not drawn) [Trimer-Lys-Che]	> 4.95 mM
COC(=O)CCCNC(=O)c1cc(NC(=O)c2cc(NC(=O)c3cc([N+](=O)[O-])n[nH]3)n[nH]2)n[nH]1 [Trimer-GABA-OMe]	0.2 to 4.95 mM
CCCCCCCCCCCCNC(=O)COCCOCCOCCNC(=O)c1cc(NC(=O)c2cc(NC(=O)c3cc([N+](=O)[O-])n[nH]3)n[nH]2)n[nH]1 [Trimer-TEG-Dodecyl]	0.2 to 4.95 mM
O=C(O)CCCNC(=O)c1cc(NC(=O)c2cc(NC(=O)c3cc([N+](=O)[O-])n[nH]3)n[nH]2)n[nH]1 [Trimer-GABA-OH]	0.2 to 4.95 mM
O=C(O)COCCOCCOCCNC(=O)c1cc(NC(=O)c2cc(NC(=O)c3cc([N+](=O)[O-])n[nH]3)n[nH]2)n[nH]1 [Trimer-TEG-OH]	0.2 to 4.95 mM
CCOC(=O)COCCOCCOCCNC(=O)c1cc(NC(=O)c2cc(NC(=O)c3cc([N+](=O)[O-])n[nH]3)n[nH]2)n[nH]1 [Trimer-TEG-OEt]	0.2 to 4.95 mM
